# Tested on: H3255
# Protocol Text: relative viability (nuclei count vs DMSO), 5 days (fraction); higher = more cells survive
# Assay Conditions: first compound 0.08 µM
Entries and their relative viability values follow.
Just the number.

Look over these answered cases.
{"Compound": "COc1nc(C)cnc1NS(=O)(=O)c1cccnc1-c1ccc(-c2nnco2)cc1 [Zibotentan] + NC(=O)Nc1cc(-c2cccc(F)c2)sc1C(=O)N[C@H]1CCCNC1 [AZD7762] (partner 0.2 µM)", "Readout Number": 0.901}
{"Compound": "O=c1cc(-c2cccc3c2Sc2ccccc2S3)oc(N2CCOCC2)c1 + CC1(C)CCC(c2ccc(Cl)cc2)=C(CN2CCN(c3ccc(C(=O)NS(=O)(=O)c4ccc(N[C@H](CCN5CCOCC5)CSc5ccccc5)c(S(=O)(=O)C(F)(F)F)c4)cc3)CC2)C1 [Navitoclax] (partner 0.5 µM)", "Readout Number": 0.55}
{"Compound": "COc1nc(C)cnc1NS(=O)(=O)c1cccnc1-c1ccc(-c2nnco2)cc1 [Zibotentan] + C[C@@H](Oc1cc(-c2cnn(C3CCNCC3)c2)cnc1N)c1c(Cl)ccc(F)c1Cl [Crizotinib] (partner 1 µM)", "Readout Number": 0.846}

Please find the next compound below.
Note relative viability for the compound shown: COc1nc(C)cnc1NS(=O)(=O)c1cccnc1-c1ccc(-c2nnco2)cc1 [Zibotentan] + CC1(C)CCC(c2ccc(Cl)cc2)=C(CN2CCN(c3ccc(C(=O)NS(=O)(=O)c4ccc(N[C@H](CCN5CCOCC5)CSc5ccccc5)c(S(=O)(=O)C(F)(F)F)c4)cc3)CC2)C1 [Navitoclax] (partner 0.5 µM) 0.458

----------
# System: NCI-H1755
# Protocol Text: relative viability (nuclei count vs DMSO), 5 days (fraction); higher = more cells survive
# Assay Conditions: first compound 0.253 µM
Binary call on relative viability with cut-off 0.8: strictly below means Fulfilled, and equality or higher means Not fulfilled.

Examples from the recorded data:
{"Compound": "O=c1cc(-c2cccc3c2Sc2ccccc2S3)oc(N2CCOCC2)c1 + Nc1nc2[nH]cc(CCc3ccc(C(=O)N[C@@H](CCC(=O)O)C(=O)O)cc3)c2c(=O)[nH]1 [Pemetrexed] (partner 0.2 µM)", "Assayed System": "NCI-H1755", "Group Label": "Fulfilled"}
{"Compound": "COc1nc(C)cnc1NS(=O)(=O)c1cccnc1-c1ccc(-c2nnco2)cc1 [Zibotentan] + CC(=O)c1c(C)c2cnc(Nc3ccc(N4CCNCC4)cn3)nc2n(C2CCCC2)c1=O [Palbociclib] (partner 0.5 µM)", "Assayed System": "NCI-H1755", "Group Label": "Fulfilled"}

relative viability under 0.8? Item: O=c1cc(-c2cccc3c2Sc2ccccc2S3)oc(N2CCOCC2)c1 + Cc1nc(Nc2ncc(C(=O)Nc3c(C)cccc3Cl)s2)cc(N2CCN(CCO)CC2)n1 [Dasatinib] (partner 0.075 µM) Fulfilled

relative viability under 0.8? Item: COc1nc(C)cnc1NS(=O)(=O)c1cccnc1-c1ccc(-c2nnco2)cc1 [Zibotentan] + CS(=O)(=O)CCNCc1ccc(-c2ccc3ncnc(Nc4ccc(OCc5cccc(F)c5)c(Cl)c4)c3c2)o1 [Lapatinib] (partner 2 µM) Not fulfilled

relative viability under 0.8? Item: COc1nc(C)cnc1NS(=O)(=O)c1cccnc1-c1ccc(-c2nnco2)cc1 [Zibotentan] + CC(=O)Nc1cccc(-n2c(=O)n(C3CC3)c(=O)c3c(Nc4ccc(I)cc4F)n(C)c(=O)c(C)c32)c1 [Trametinib] (partner 0.02 µM) Fulfilled

relative viability under 0.8? Item: O=c1cc(-c2cccc3c2Sc2ccccc2S3)oc(N2CCOCC2)c1 + Cc1cc(Nc2cc(N3CCN(C)CC3)nc(Sc3ccc(NC(=O)C4CC4)cc3)n2)n[nH]1 [Tozasertib] (partner 0.1 µM) Fulfilled

relative viability under 0.8? Item: COc1nc(C)cnc1NS(=O)(=O)c1cccnc1-c1ccc(-c2nnco2)cc1 [Zibotentan] + CC(C)C[C@H](NC(=O)[C@H](Cc1ccccc1)NC(=O)c1cnccn1)B(O)O [Bortezomib] (partner 0.002 µM) Not fulfilled

relative viability under 0.8? Item: COc1nc(C)cnc1NS(=O)(=O)c1cccnc1-c1ccc(-c2nnco2)cc1 [Zibotentan] + O=C(c1cc(Cc2n[nH]c(=O)c3ccccc23)ccc1F)N1CCN(C(=O)C2CC2)CC1 [Olaparib] (partner 8 µM) Not fulfilled

relative viability under 0.8? Item: COc1nc(C)cnc1NS(=O)(=O)c1cccnc1-c1ccc(-c2nnco2)cc1 [Zibotentan] + NC(=O)Nc1cc(-c2cccc(F)c2)sc1C(=O)N[C@H]1CCCNC1 [AZD7762] (partner 0.2 µM) Fulfilled

----------
Entries and their relative viability values follow.
# Tested on: COR-L 105
# Protocol Text: relative viability (nuclei count vs DMSO), 5 days (fraction); higher = more cells survive
# Assay Conditions: first compound 2 µM
Just the number.

Look over these answered cases.
{"Molecule": "COCC1(CO)C(=O)C2CCN1CC2 (stereo not given) [PRIMA-1MET] + C[C@@H](Oc1cc(-c2cnn(C3CCNCC3)c2)cnc1N)c1c(Cl)ccc(F)c1Cl [Crizotinib] (partner 1 µM)", "Assayed System": "COR-L 105", "relative viability": 0.74}
{"Molecule": "COCC1(CO)C(=O)C2CCN1CC2 (stereo not given) [PRIMA-1MET] + Cc1cc(Nc2cc(N3CCN(C)CC3)nc(Sc3ccc(NC(=O)C4CC4)cc3)n2)n[nH]1 [Tozasertib] (partner 0.1 µM)", "Assayed System": "COR-L 105", "relative viability": 0.32}
{"Molecule": "COCC1(CO)C(=O)C2CCN1CC2 (stereo not given) [PRIMA-1MET] + CC(C)C[C@H](NC(=O)[C@H](Cc1ccccc1)NC(=O)c1cnccn1)B(O)O [Bortezomib] (partner 0.002 µM)", "Assayed System": "COR-L 105", "relative viability": 0.544}
{"Molecule": "COCC1(CO)C(=O)C2CCN1CC2 (stereo not given) [PRIMA-1MET] + COc1cccc2cc(-c3nc([C@H]4CC[C@H](C(=O)O)CC4)n4ncnc(N)c34)[nH]c12 [OSI-027] (partner 0.5 µM)", "Assayed System": "COR-L 105", "relative viability": 0.488}

Please find the next molecule below.
Note relative viability for the molecule shown: COCC1(CO)C(=O)C2CCN1CC2 (stereo not given) [PRIMA-1MET] + CS(=O)(=O)CCNCc1ccc(-c2ccc3ncnc(Nc4ccc(OCc5cccc(F)c5)c(Cl)c4)c3c2)o1 [Lapatinib] (partner 2 µM) 0.312

----------
# Test system: NCI-H1944
# Protocol Text: relative viability (nuclei count vs DMSO), 5 days (fraction); higher = more cells survive
# Assay Conditions: first compound 0.01 µM
Entries and their relative viability values follow.
Just the number.

Look over these answered cases.
{"Compound": "CCN(CC)CCCCNc1ncc2cc(-c3cc(OC)cc(OC)c3)c(NC(=O)NC(C)(C)C)nc2n1 + Cc1nc(NC(=O)N2CCC[C@H]2C(N)=O)sc1-c1ccnc(C(C)(C)C(F)(F)F)c1 [Alpelisib] (partner 2 µM)", "Assayed System": "NCI-H1944", "relative viability": 0.884}
{"Compound": "O=c1cc(N2CCOCC2)oc2c(-c3cccc4c3sc3ccccc34)cccc12 + CC(=O)c1c(C)c2cnc(Nc3ccc(N4CCNCC4)cn3)nc2n(C2CCCC2)c1=O [Palbociclib] (partner 0.5 µM)", "Assayed System": "NCI-H1944", "relative viability": 0.331}
{"Compound": "CCN(CC)CCCCNc1ncc2cc(-c3cc(OC)cc(OC)c3)c(NC(=O)NC(C)(C)C)nc2n1 + NC(=O)Nc1cc(-c2cccc(F)c2)sc1C(=O)N[C@H]1CCCNC1 [AZD7762] (partner 0.2 µM)", "Assayed System": "NCI-H1944", "relative viability": 0.474}
{"Compound": "CCN(CC)CCCCNc1ncc2cc(-c3cc(OC)cc(OC)c3)c(NC(=O)NC(C)(C)C)nc2n1 + N=C(N)NC(=N)NCCc1ccccc1 [Phenformin] (partner 250 µM)", "Assayed System": "NCI-H1944", "relative viability": 0.204}

Please find the next compound below.
Note relative viability for the compound shown: CCN(CC)CCCCNc1ncc2cc(-c3cc(OC)cc(OC)c3)c(NC(=O)NC(C)(C)C)nc2n1 + Nc1ncn([C@H]2C[C@H](O)[C@@H](CO)O2)c(=O)n1 [Decitabine] (partner 2 µM) 0.489

----------
Entries and their relative viability values follow.
# Test system: NCI-H2009
# Protocol Text: relative viability (nuclei count vs DMSO), 5 days (fraction); higher = more cells survive
# Assay Conditions: first compound 0.8 µM

{"Compound": "COc1nc(C)cnc1NS(=O)(=O)c1cccnc1-c1ccc(-c2nnco2)cc1 [Zibotentan] + Cc1cc(Nc2cc(N3CCN(C)CC3)nc(Sc3ccc(NC(=O)C4CC4)cc3)n2)n[nH]1 [Tozasertib] (partner 0.1 µM)", "Property Measured": "relative viability", "Result": 0.778}
{"Compound": "COc1nc(C)cnc1NS(=O)(=O)c1cccnc1-c1ccc(-c2nnco2)cc1 [Zibotentan] + C[C@@H](Oc1cc(-c2cnn(C3CCNCC3)c2)cnc1N)c1c(Cl)ccc(F)c1Cl [Crizotinib] (partner 1 µM)", "Property Measured": "relative viability", "Result": 0.995}
{"Compound": "COc1nc(C)cnc1NS(=O)(=O)c1cccnc1-c1ccc(-c2nnco2)cc1 [Zibotentan] + Cc1nc(Nc2ncc(C(=O)Nc3c(C)cccc3Cl)s2)cc(N2CCN(CCO)CC2)n1 [Dasatinib] (partner 0.075 µM)", "Property Measured": "relative viability", "Result": 0.306}

Check NCI-H2009 data and give relative viability for COc1nc(C)cnc1NS(=O)(=O)c1cccnc1-c1ccc(-c2nnco2)cc1 [Zibotentan] + Nc1nc2[nH]cc(CCc3ccc(C(=O)N[C@@H](CCC(=O)O)C(=O)O)cc3)c2c(=O)[nH]1 [Pemetrexed] (partner 0.2 µM) . 1.01
